Record form. Attribute: self-cleavage kobs at 2500 uM GlcN6P. Fill in for each entry.
B1: glmS ribozyme (parent)
chain: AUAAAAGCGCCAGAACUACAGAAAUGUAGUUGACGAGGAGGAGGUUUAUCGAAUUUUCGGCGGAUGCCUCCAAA

# Variants of: B1
# TEST_SUMMARY: self-cleavage kobs at 2500 uM GlcN6P; higher = faster cleavage; RNA array
# CONDITION_SUMMARY: with glucosamine-6-phosphate
Variants at the floor of the assay were thinned out.

Examples from the recorded data:
A14U G43C U45G; 0.000172 s⁻¹
G41A A64G; 0.00071 s⁻¹
G38A C50G G59U C61A C67G; 8.22e-05 s⁻¹
G29U U30A A33G G37U; < 1e-05 s⁻¹
A36U C67G C68G C71U; 5.55e-05 s⁻¹

For each entry beneath this line, provide reported self-cleavage kobs at 2500 uM GlcN6P.
1. A12G A48G U55C U57G
2. G35A G44U U65A C70G
3. A48U C71G
4. G7U G9A C58A C61A C67U
5. U30A A53C

Response:
1: < 1e-05 s⁻¹; 2: < 1e-05 s⁻¹; 3: 6.5e-05 s⁻¹; 4: < 1e-05 s⁻¹; 5: 0.000882 s⁻¹

For each entry beneath this line, provide reported self-cleavage kobs at 2500 uM GlcN6P.
1. U31G C58A
2. C8U C58A U65C

Response:
1: 9.47e-05 s⁻¹; 2: < 1e-05 s⁻¹

For each entry beneath this line, provide reported self-cleavage kobs at 2500 uM GlcN6P.
1. C8U G32A G41U
2. U31C G32C G35A G59U G66U C71U
3. U46C G51C C70U
4. A12G U30A A52C U54C
5. U31G U49G G59C
6. A12C A53G
7. C16A U31A A39G U57C G60U

Response:
["< 1e-05 s⁻¹", "< 1e-05 s⁻¹", "< 1e-05 s⁻¹", "< 1e-05 s⁻¹", "< 1e-05 s⁻¹", "0.0149 s⁻¹", "< 1e-05 s⁻¹"]
